- Tested on: MCF7
- methodSummary: Antiproliferative activity against human MCF7 cells assessed as growth inhibition at 0.2 uM measured after 72 hrs by MTT assay
- Assay type: functional
- condition: read-out: GI
measuredProperty: inhibition of growth at 0.2 µM

query: Which measured inhibition of growth at 0.2 µM value corresponds to `COc1ccc(/C=C(\C#N)C(=O)NCCC(=O)N[C@@H](CCC(=O)NC(C)(C)C)C(=O)N[C@@H](Cc2ccccc2)C(=O)NCc2ccc(C)cc2)cc1` ?
result: < 20%

query: Which inhibition of growth at 0.2 µM value belongs to `CC(C)(C)NC(=O)CC[C@H](NC(=O)CCNC(=O)/C(C#N)=C/c1ccc(Cl)cc1)C(=O)N[C@@H](Cc1ccccc1)C(=O)NCc1cccc2ccccc12` ?
result: < 20%

query: For `Cc1ccc(CNC(=O)[C@H](Cc2ccccc2)NC(=O)[C@H](CCC(=O)NC(C)(C)C)NC(=O)[C@H](CNC(=O)CCl)NC(=O)C(=O)c2c[nH]c3ccccc23)cc1` , what is its reported inhibition of growth at 0.2 µM?
result: < 20%

query: Recorded inhibition of growth at 0.2 µM for `Cc1ccc(CNC(=O)[C@H](Cc2ccccc2)NC(=O)[C@H](CCC(=O)NC(C)(C)C)NC(=O)CCNC(=O)/C(C#N)=C/C(C)C)cc1` , please?
result: < 20%

query: Which inhibition of growth at 0.2 µM value belongs to `CC(C)(C)NC(=O)CC[C@H](NC(=O)CCNC(=O)CCl)C(=O)N[C@@H](Cc1ccccc1)C(=O)NCc1cccc2ccccc12` ?
result: < 20%

query: Value lookup for inhibition of growth at 0.2 µM; key = `Cc1ccc(CNC(=O)[C@H](Cc2ccc3ccccc3c2)NC(=O)[C@H](CCC(=O)NC(C)(C)C)NC(=O)CCNC(=O)CCl)cc1`
result: < 20%

---

- Tested on: HCT-116
- methodSummary: Antiproliferative activity against human HCT-116 cells assessed as growth inhibition at 0.2 uM measured after 72 hrs by MTT assay
- Format: functional
- condition: read-out: GI
Label rule, in plain words: inhibition of growth at 0.2 µM of 30% and up is Y, under 30% is N.

query: Confirm if inhibition of growth at 0.2 µM reported for the compound `CC(C)(C)NC(=O)CC[C@H](NC(=O)CCNC(=O)CCl)C(=O)N[C@@H](Cc1ccccc1)C(=O)NCc1cccc2ccccc12` is 30% or above.
result: N

query: Could you please find out whether `CC(C)(C)NC(=O)CC[C@H](NC(=O)CCNC(=O)/C(C#N)=C/c1ccc(Cl)cc1)C(=O)N[C@@H](Cc1ccccc1)C(=O)NCc1cccc2ccccc12` has inhibition of growth at 0.2 µM that meets 30% or exceeds it?
result: N

query: Would you say `Cc1ccc(CNC(=O)[C@H](Cc2ccccc2)NC(=O)[C@H](CCC(=O)NC(C)(C)C)NC(=O)[C@H](CNC(=O)CCl)NC(=O)CN2CCOCC2)cc1` shows inhibition of growth at 0.2 µM at minimum 30%?
result: N

query: Hi team, for `Cc1ccc(CNC(=O)[C@H](Cc2cccc(F)c2)NC(=O)[C@H](CCC(=O)NC(C)(C)C)NC(=O)CCNC(=O)CCl)cc1` , is the recorded inhibition of growth at 0.2 µM at or above 30%?
result: Y

query: For this compound, is measured inhibition of growth at 0.2 µM 30% or higher? `CCC(=O)NCCC(=O)N[C@@H](CCC(=O)NC(C)(C)C)C(=O)N[C@@H](Cc1ccccc1)C(=O)NCc1cccc2ccccc12`
result: N

query: Hi team, for `Cc1ccc(CNC(=O)[C@H](Cc2ccccc2)NC(=O)[C@H](CCC(=O)NC(C)(C)C)NC(=O)[C@H](CNC(=O)CCl)NC(=O)c2cc(C)on2)cc1` , is the recorded inhibition of growth at 0.2 µM at or above 30%?
result: Y
